# Condition notes: in n-pentanol, 313.15 K
Experimental readout: solubility (mole fraction)

The compound identified as O=C(O)COc1ccc2ccccc2c1 registered its solubility (mole fraction) at 0.0433

----------
# Condition notes: in n-propyl acetate, 283.15 K
Experimental readout: solubility (mole fraction)
A bare number is all that is needed in reply.

# solubility (mole fraction) (compound: O=C(O)COc1ccc2ccccc2c1 ) is 0.0142

----------
# Condition notes: in acetonitrile, 318.15 K
Experimental readout: solubility (mole fraction)
Just the number, please, no unit attached.

Noted for O=C(O)COc1ccc2ccccc2c1 : its solubility (mole fraction) reads 0.0214

----------
# Condition notes: in n-propanol, 313.15 K
Experimental readout: solubility (mole fraction)
Just the number, please, no unit after it.

The recorded solubility (mole fraction) for O=C(O)COc1ccc2ccccc2c1 is 0.04

----------
# Condition notes: in methanol, 313.15 K
Experimental readout: solubility (mole fraction)
The response must contain the number and no unit.

solubility (mole fraction) in this record for O=C(O)COc1ccc2ccccc2c1 : 0.052

----------
# Condition notes: in isopropyl acetate, 298.15 K
Experimental readout: solubility (mole fraction)
The answer should be written as a number, with no unit following it.

compound O=C(O)COc1ccc2ccccc2c1 , solubility (mole fraction) observed: 0.0187

----------
# Condition notes: in methyl acetate, 323.15 K
Experimental readout: solubility (mole fraction)

The reported value for O=C(O)COc1ccc2ccccc2c1 in terms of solubility (mole fraction) is 0.0602

----------
# Condition notes: in isobutanol, 298.15 K
Experimental readout: solubility (mole fraction)

O=C(O)COc1ccc2ccccc2c1 yielded solubility (mole fraction) of 0.0132

----------
# Condition notes: in ethyl acetate, 318.15 K
Experimental readout: solubility (mole fraction)
I only need the number, thanks.

Noted for O=C(O)COc1ccc2ccccc2c1 : its solubility (mole fraction) reads 0.0455

----------
# Condition notes: in acetone, 283.15 K
Experimental readout: solubility (mole fraction)
Returns: the value as a bare number; no unit string appended.

solubility (mole fraction) recorded for this compound, O=C(O)COc1ccc2ccccc2c1 , is 0.0427

----------
# Condition notes: in methyl acetate, 293.15 K
Experimental readout: solubility (mole fraction)
// return just the number, without any unit appended

Lookup result for O=C(O)COc1ccc2ccccc2c1 ; measured solubility (mole fraction): 0.0243

----------
# Condition notes: in ethyl acetate, 313.15 K
Experimental readout: solubility (mole fraction)
Keep the answer to the number alone.

According to the records, this compound O=C(O)COc1ccc2ccccc2c1 displays solubility (mole fraction) of 0.0393

----------
# Condition notes: in methanol, 303.15 K
Experimental readout: solubility (mole fraction)

The reported value for O=C(O)COc1ccc2ccccc2c1 in terms of solubility (mole fraction) is 0.0339

----------
# Condition notes: in acetonitrile, 288.15 K
Experimental readout: solubility (mole fraction)

Sure, the documented solubility (mole fraction) for O=C(O)COc1ccc2ccccc2c1 is 0.00695

----------
# Condition notes: in n-pentanol, 303.15 K
Experimental readout: solubility (mole fraction)
Lab note: write the figure by itself, no unit.

Reported solubility (mole fraction) ( O=C(O)COc1ccc2ccccc2c1 ) = 0.0294

----------
# Condition notes: in methyl acetate, 298.15 K
Experimental readout: solubility (mole fraction)
Form: value (number only, do not type unit).

O=C(O)COc1ccc2ccccc2c1 yielded solubility (mole fraction) of 0.0283

----------
# Condition notes: in acetone, 308.15 K
Experimental readout: solubility (mole fraction)
Just the number, please, no unit attached.

For O=C(O)COc1ccc2ccccc2c1 the compound record lists solubility (mole fraction) as 0.0785

----------
# Condition notes: in acetone, 293.15 K
Experimental readout: solubility (mole fraction)
Enter a number only.

O=C(O)COc1ccc2ccccc2c1 has a reported solubility (mole fraction) of 0.0543

----------
# Condition notes: in acetone, 303.15 K
Experimental readout: solubility (mole fraction)

Per the record, O=C(O)COc1ccc2ccccc2c1 has solubility (mole fraction) of 0.0693

----------
# Condition notes: in isobutanol, 313.15 K
Experimental readout: solubility (mole fraction)
Please respond with just the number, no unit label.

The reported value for O=C(O)COc1ccc2ccccc2c1 in terms of solubility (mole fraction) is 0.0262

----------
# Condition notes: in n-propyl acetate, 318.15 K
Experimental readout: solubility (mole fraction)
// no unit string in output, number only

For O=C(O)COc1ccc2ccccc2c1 the molecule record lists solubility (mole fraction) as 0.0393

----------
# Condition notes: in ethyl acetate, 283.15 K
Experimental readout: solubility (mole fraction)
// return a plain number; no unit text

response.value for O=C(O)COc1ccc2ccccc2c1 (field: solubility (mole fraction)) = 0.0167

----------
# Condition notes: in isopropyl acetate, 293.15 K
Experimental readout: solubility (mole fraction)
API doc: respond with a numeric literal and nothing else, no unit.

Looking up O=C(O)COc1ccc2ccccc2c1 , I found its solubility (mole fraction) recorded as 0.0162

----------
# Condition notes: in methanol, 318.15 K
Experimental readout: solubility (mole fraction)
Write no unit; give the number alone.

# compound O=C(O)COc1ccc2ccccc2c1 ; its solubility (mole fraction) = 0.0656

----------
# Condition notes: in ethyl acetate, 288.15 K
Experimental readout: solubility (mole fraction)
In your answer, state the number alone without any accompanying words.

Given item O=C(O)COc1ccc2ccccc2c1 , the value recorded as its solubility (mole fraction) is 0.0192

----------
# Condition notes: in n-pentanol, 318.15 K
Experimental readout: solubility (mole fraction)
Please give only the number in your answer, with no unit.

What the record says about O=C(O)COc1ccc2ccccc2c1 : solubility (mole fraction) is 0.0526

----------
# Condition notes: in n-propyl acetate, 303.15 K
Experimental readout: solubility (mole fraction)

For O=C(O)COc1ccc2ccccc2c1 the compound record lists solubility (mole fraction) as 0.0253

----------
# Condition notes: in ethanol, 323.15 K
Experimental readout: solubility (mole fraction)
Give the figure only, with no unit attached.

solubility (mole fraction) in this record for O=C(O)COc1ccc2ccccc2c1 : 0.0728

----------
# Condition notes: in methyl acetate, 278.15 K
Experimental readout: solubility (mole fraction)

Memo: O=C(O)COc1ccc2ccccc2c1 , reported solubility (mole fraction): 0.0156

----------
# Condition notes: in isopropyl acetate, 318.15 K
Experimental readout: solubility (mole fraction)
Just the number, please, no unit after it.

Entry O=C(O)COc1ccc2ccccc2c1 — recorded solubility (mole fraction) = 0.0336

----------
# Condition notes: in isobutanol, 303.15 K
Experimental readout: solubility (mole fraction)
When you answer, write just the number.

For reference, reported solubility (mole fraction) for O=C(O)COc1ccc2ccccc2c1 stands at 0.0165

----------
# Condition notes: in isopropyl acetate, 308.15 K
Experimental readout: solubility (mole fraction)
Just the number, please, no unit attached.

# molecule O=C(O)COc1ccc2ccccc2c1 ; its solubility (mole fraction) = 0.025

----------
# Condition notes: in methyl acetate, 303.15 K
Experimental readout: solubility (mole fraction)
Give the value as a plain number.

# compound O=C(O)COc1ccc2ccccc2c1 ; its solubility (mole fraction) = 0.0329

----------
# Condition notes: in ethyl acetate, 278.15 K
Experimental readout: solubility (mole fraction)
Answer using only a numeral; do not append any unit.

Entry O=C(O)COc1ccc2ccccc2c1 , solubility (mole fraction) reported as 0.0145

----------
# Condition notes: in ethanol, 303.15 K
Experimental readout: solubility (mole fraction)
Just the number.

Summary for this molecule, O=C(O)COc1ccc2ccccc2c1 : solubility (mole fraction) is 0.0315

----------
# Condition notes: in acetone, 288.15 K
Experimental readout: solubility (mole fraction)
# print the numeric value only

The compound identified as O=C(O)COc1ccc2ccccc2c1 registered its solubility (mole fraction) at 0.0481

----------
# Condition notes: in acetone, 318.15 K
Experimental readout: solubility (mole fraction)
No unit in the answer, only the number.

For O=C(O)COc1ccc2ccccc2c1 the compound record lists solubility (mole fraction) as 0.101

----------
# Condition notes: in methyl acetate, 283.15 K
Experimental readout: solubility (mole fraction)
Reply briefly: the number, and no unit.

Item: O=C(O)COc1ccc2ccccc2c1 | solubility (mole fraction): 0.0181

----------
# Condition notes: in ethanol, 313.15 K
Experimental readout: solubility (mole fraction)
Reply with just the number.

The reported value for O=C(O)COc1ccc2ccccc2c1 in terms of solubility (mole fraction) is 0.0469

----------
# Condition notes: in n-propanol, 288.15 K
Experimental readout: solubility (mole fraction)

Lab note: O=C(O)COc1ccc2ccccc2c1 gave solubility (mole fraction) of 0.0146

----------
# Condition notes: in n-propanol, 278.15 K
Experimental readout: solubility (mole fraction)
Please give only the number in your answer, with no unit.

GET /value?item= O=C(O)COc1ccc2ccccc2c1 &field=solubility (mole fraction) returns 0.0101

----------
# Condition notes: in acetonitrile, 323.15 K
Experimental readout: solubility (mole fraction)

solubility (mole fraction) for O=C(O)COc1ccc2ccccc2c1 is 0.0258

----------
# Condition notes: in acetonitrile, 278.15 K
Experimental readout: solubility (mole fraction)
# output: bare number, no unit

What the record says about O=C(O)COc1ccc2ccccc2c1 : solubility (mole fraction) is 0.00475
